Test system: MDA-MB-231
procedure_text: Cytotoxicity against human MDA-MB-231 cells assessed as cell viability at 10 uM after 24 hrs by MTT assay relative to control
Type: functional
reported_conditions: MDA-MB-231, 24 h, read-out: Activity
Catalogue of viability at 10 µM values
A number alone suffices; assume %.

// worked examples, viability at 10 µM included
>  <compound>
C=C1C(=O)O[C@@H]2[C@H]3O[C@]3(C)CC/C=C(/C)[C@@H](OC(C(=O)OCC)c3ccccc3)C[C@@H]12 (some centres not stated)

>  <unit_text>
%

>  <viability at 10 µM>
90

$$$$
>  <compound>
C=C1C(=O)O[C@@H]2[C@H]3O[C@]3(C)CC/C=C(/COCc3ccc(C(F)(F)F)cc3)CC[C@@H]12

>  <unit_text>
%

>  <viability at 10 µM>
100

$$$$

Ask: Would you kindly share the measured viability at 10 µM for C=C1C(=O)O[C@@H]2[C@H]3O[C@]3(C)CC/C=C(/COC(C(=O)OCc3ccccc3)c3ccccc3)CC[C@@H]12 (some centres not stated) ?
Result: 88.1

Ask: Would you kindly share the measured viability at 10 µM for C=C1C(=O)O[C@@H]2[C@H]3O[C@]3(C)CC/C=C(/COC(C(=O)OCC)c3ccc(C(F)(F)F)cc3)CC[C@@H]12 (some centres not stated) ?
Result: 96.3

Ask: Would you kindly share the measured viability at 10 µM for `C=C1C(=O)O[C@@H]2[C@H]3O[C@]3(C)CC/C=C(/C)[C@@H](OC(=O)c3ccc(C(F)(F)F)cc3C(F)(F)F)C[C@@H]12` ?
Result: 19.2

Ask: Would you kindly share the measured viability at 10 µM for `C=C1C(=O)O[C@@H]2[C@H]3O[C@]3(C)CC/C=C(/COC(=O)c3coc(-c4ccc(Br)cc4)c3)CC[C@@H]12` ?
Result: 91

Ask: Would you kindly share the measured viability at 10 µM for `C=C1C(=O)O[C@@H]2[C@H]3O[C@]3(C)CC/C=C(/C)[C@@H](OC(=O)c3ccc4ccccc4c3)C[C@@H]12` ?
Result: 100

// provenance: ChEMBL document CHEMBL4219033
